# credit: ChEMBL document CHEMBL1140598

- RUN DESCRIPTION: Inhibition of Leishmania donovani solubilized fumarate reductase
Here, each record is paired with measured pIC50 data.
Please keep in mind that pIC50 is minus log10 of the molar concentration; only the number is needed.

> print(dat)
                                 structure  measured.metric  quantitative.result
1  C=CCOc1ccc(C(=O)/C=C/c2ccc(OC)cc2OC)cc1            pIC50                 3.82

# evaluate next
Request: Quick one: pIC50 for CCCCOc1ccc(C(=O)/C=C/c2ccc(OC)cc2OC)cc1 ?
Response: 3.93

----------
- RUN DESCRIPTION: Inhibition of Leishmania major NADH-cytochrome c reductase
MEASURED METRIC: IC50 (µM)
# value in µM; strip the unit string

Request: Quick one: IC50 for C=CC(C)(C)c1cc(/C=C/C(=O)c2ccc(O)cc2)c(OC)cc1O ?
Response: 1980

----------
- RUN DESCRIPTION: Inhibition of Leishmania major NADH-dehydrogenase in human PBMCs crude mitochondria after 60 mins
MEASURED METRIC: IC50 (µM)
# value in µM; strip the unit string

Request: Quick one: IC50 for C=CC(C)(C)c1cc(/C=C/C(=O)c2ccc(O)cc2)c(OC)cc1O ?
Response: 1400

----------
Here, each record is paired with measured inhibition at 12.5 µg/mL data.
- System: Mycobacterium tuberculosis
- RUN DESCRIPTION: Antibacterial activity against Mycobacterium tuberculosis H37Rv at 12.5 ug/mL
- Format: functional
# value in %; strip the unit string

Observe how each entry below is paired with its result.
> print(dat)
                                   molecule           measured.metric  unit.info  quantitative.result
1            O=C(/C=C/c1cccc(I)c1)c1ccccc1O  inhibition at 12.5 µg/mL          %                   90
2           O=C(/C=C/c1cccc(Cl)c1)c1ccccc1O  inhibition at 12.5 µg/mL          %                   90
3           O=C(/C=C/c1ccccc1)c1ccc(Cl)cc1O  inhibition at 12.5 µg/mL          %                   89
4  O=C(/C=C/c1ccccc1)c1ccccc1O [2'-HYDROXYCHALCONE]  inhibition at 12.5 µg/mL          %                   61

Request: Quick one: inhibition at 12.5 µg/mL for COc1ccc(C(=O)/C=C/c2ccccc2)c(O)c1 ?
Response: 78

----------
- System: Leishmania braziliensis
- RUN DESCRIPTION: Growth inhibition of Leishmania braziliensis promastigotes
- Assay type: functional, organism-based
MEASURED METRIC: pIC50
Please keep in mind that pIC50 is minus log10 of the molar concentration; only the number is needed.

Request: Quick one: pIC50 for O=C(/C=C/c1ccccc1)c1ccccc1 ?
Response: 4.86

----------
- Test system: Plasmodium falciparum
- RUN DESCRIPTION: Antiplasmodial activity against chloroquine-sensitive Plasmodium falciparum 3D7 by [3H]hypoxanthine incorporation
- Format: functional, organism-based
MEASURED METRIC: IC50 (µM)
# value in µM; strip the unit string

Request: Quick one: IC50 for CCCCOc1ccc(C(=O)/C=C/c2ccc(OC)cc2OC)cc1 ?
Response: 8.9

----------
- Tested on: Plasmodium falciparum
- RUN DESCRIPTION: Antimalarial activity against chloroquine-resistant Plasmodium falciparum K1 by [3H]hypoxanthine incorporation
- Format: functional, organism-based
MEASURED METRIC: pIC50
Please keep in mind that pIC50 is minus log10 of the molar concentration; only the number is needed.

Observe how each entry below is paired with its result.
> print(dat)
                                  structure  quantitative.result
1    COc1ccc(C(=O)/C=C/c2ccc(F)cc2F)c(OC)c1                 5.19
2  COc1ccc(C(=O)/C=C/c2ccc(Cl)cc2Cl)c(OC)c1OC                 5.19
3     O=C(/C=C/c1ccc(Cl)c(Cl)c1)c1ccc(O)cc1                 4.70

Request: Quick one: pIC50 for COc1ccc(/C=C/C(=O)c2ccc(OC)cc2OC)c(OC)c1 ?
Response: 5.19

Request: Quick one: pIC50 for COc1ccc(C(=O)/C=C/c2ccc(C(F)(F)F)cc2)c(OC)c1 ?
Response: 5.19

Request: Quick one: pIC50 for COc1ccc(C(=O)/C=C/c2ccc(C(F)(F)F)cc2)c(OC)c1OC ?
Response: 5.19

----------
- RUN DESCRIPTION: Inhibition of Leishmania major NADH dehydrogenase
MEASURED METRIC: pIC50
Please keep in mind that pIC50 is minus log10 of the molar concentration; only the number is needed.

Request: Quick one: pIC50 for C=CC(C)(C)c1cc(/C=C/C(=O)c2ccc(O)cc2)c(OC)cc1O ?
Response: 3.34

----------
- Test system: Plasmodium falciparum
- RUN DESCRIPTION: Antimalarial activity against chloroquine-resistant Plasmodium falciparum K1 by [3H]hypoxanthine incorporation
- Assay type: functional, organism-based
MEASURED METRIC: pIC50
Please keep in mind that pIC50 is minus log10 of the molar concentration; only the number is needed.

Observe how each entry below is paired with its result.
> print(dat)
                              structure  quantitative.result
1    O=C(/C=C/c1ccc(F)cc1F)c1ccc(O)cc1O                 4.70
2  CCc1ccc(/C=C/C(=O)c2ccc(OC)cc2OC)cc1                 5.19

Request: Quick one: pIC50 for CN(C)c1ccc(/C=C/C(=O)c2ccc(O)cc2)cc1 ?
Response: 4.70
